assay: Metabolic stability in mouse liver microsomes (MLM)
measurementLabel: half-life at 1 μM

{"substanceSmiles": "FC(F)(F)c1cc(NCc2ccc(-c3ccc(Oc4ccccc4)nc3)cn2)ccn1", "measurementLabel": "half-life at 1 μM", "result": "35 min"}
{"substanceSmiles": "FC(F)(F)c1cc(NCc2cnc(-c3ccc(C4CC4)cc3)nc2)ccn1", "measurementLabel": "half-life at 1 μM", "result": "3 min"}
{"substanceSmiles": "FC(F)(F)c1cc(NCc2ccc(-c3ccc(Cl)cn3)cn2)ccn1", "measurementLabel": "half-life at 1 μM", "result": "75 min"}
{"substanceSmiles": "FC(F)(F)c1cc(NCc2ccc(-c3ccc(Cl)nc3)cn2)ccn1", "measurementLabel": "half-life at 1 μM", "result": "> 480 min"}
{"substanceSmiles": "FC(F)(F)c1cc(NCc2ccc(-c3cnc(Cl)c(Cl)c3)cn2)ccn1", "measurementLabel": "half-life at 1 μM", "result": "45 min"}
